Hey, just so you know, these numbers are from PubChem BioAssay (NCI).

- System: CAKI-1 renal
- Procedure summary: NCI-60 one-dose screen, 48 h
- Recorded conditions: 10 µM unless noted
Compounds without any hit were thinned out: in the full panel of roughly 83,000, 20% have a hit. The source made the active and inactive calls. The calls were made as follows: active = growth percent below 10; inactive = the rest.
Assign a class; possible classes are true (1) for active, false (0) for inactive

The examples below pair each entry with its known result.
{"columns": ["Compound", "Target entity", "Answer label"],
 "data": [
  ["Cc1ccc(-c2nc(C#N)c(S(=O)(=O)N(C)C)o2)cc1", "CAKI-1 renal", "false (0)"],
  ["c1ccc(-c2cc(-c3cc(-c4ccccc4)on3)no2)cc1", "CAKI-1 renal", "false (0)"],
  ["Cc1oc2c(Cc3ccc(NC(=O)c4ccc(Cl)cc4)cc3)ncnc2c1C(=O)NO", "CAKI-1 renal", "false (0)"],
  ["Cc1nc2sc(C(=O)Nc3cccc4ccccc34)c(N)c2cc1C(=O)/C=C/c1ccccc1", "CAKI-1 renal", "true (1)"],
  ["C=C(C)[C@@H]1CC[C@]2(C)[C@H](CC(=O)N[C@H]3[C@@H]4C[C@](C)(C(=O)OC)CC[C@]4(C)CC[C@]32C)[C@@]1(C)CCC#N", "CAKI-1 renal", "false (0)"]
]}

Name the outcome recorded for Cc1cnc(C(=O)NNc2nc3sc4c(c3c(=O)[nH]2)C(C)CCC4)cn1 (stereo not given) in the assay.
true (1)

Request: CN1CCCc2cc(/C=C3\SC(=S)N(C(Cc4ccc(O)cc4)C(=O)O)C3=O)ccc21 (stereo not given)
false (0)

Request: CN(C)C(=O)c1cc2cnc(Nc3ccc(-c4csc5c(=S)cc(N6CCOCC6)oc45)cc3)nc2n1C1CCCC1
false (0)
